Measured SI by item
- TEST TARGET: ratAChE (Rattus norvegicus)
- Construct: AChE from 5% rat cortex homogenate or human erythrocytes (Sigma Co.); from tissue; host or cells: 5% rat cortex homogenate
- PROCEDURE SUMMARY: biochemical
- SETUP CONDITIONS: Selectivity Index = IC50 (BuChE)/IC50 (AChE), rat enzymes
Write no unit; give the number alone.

Consider the worked cases shown below.
COMPOUND	SI
CCN(CCCOc1ccc(-c2cc(=O)c3c(O)cc(OCCCN(CC)Cc4ccccc4)cc3o2)cc1)Cc1ccccc1 [Compound 10b]	4.3
CCN(CCCCOc1cc(O)c2c(c1)OC(c1ccc(O)cc1)CC2=O)Cc1ccccc1 (stereo not shown) [Compound 5c]	5.8
CCN(CCCCOc1ccc(C2CC(=O)c3c(O)cc(OCCCCN(CC)Cc4ccccc4)cc3O2)cc1)Cc1ccccc1 (stereo not shown) [Compound 7g]	11.2

For the next question, use this compound.
Give SI for this entry on ratAChE (Rattus norvegicus): CC1CC(C)CN(CCCCCCOc2ccc(-c3cc(=O)c4c(O)cc(OCCCCCCN5CC(C)CC(C)C5)cc4o3)cc2)C1 (stereo not shown) [Compound 10v]
1.8

----------
Measured SI by item
- TEST TARGET: ratAChE (Rattus norvegicus, UniProt P37136)
- Construct: AChE from 5% rat cortex homogenate or human erythrocytes (Sigma Co.); from tissue; host or cells: 5% rat cortex homogenate
- Sequence (P37136 32-614): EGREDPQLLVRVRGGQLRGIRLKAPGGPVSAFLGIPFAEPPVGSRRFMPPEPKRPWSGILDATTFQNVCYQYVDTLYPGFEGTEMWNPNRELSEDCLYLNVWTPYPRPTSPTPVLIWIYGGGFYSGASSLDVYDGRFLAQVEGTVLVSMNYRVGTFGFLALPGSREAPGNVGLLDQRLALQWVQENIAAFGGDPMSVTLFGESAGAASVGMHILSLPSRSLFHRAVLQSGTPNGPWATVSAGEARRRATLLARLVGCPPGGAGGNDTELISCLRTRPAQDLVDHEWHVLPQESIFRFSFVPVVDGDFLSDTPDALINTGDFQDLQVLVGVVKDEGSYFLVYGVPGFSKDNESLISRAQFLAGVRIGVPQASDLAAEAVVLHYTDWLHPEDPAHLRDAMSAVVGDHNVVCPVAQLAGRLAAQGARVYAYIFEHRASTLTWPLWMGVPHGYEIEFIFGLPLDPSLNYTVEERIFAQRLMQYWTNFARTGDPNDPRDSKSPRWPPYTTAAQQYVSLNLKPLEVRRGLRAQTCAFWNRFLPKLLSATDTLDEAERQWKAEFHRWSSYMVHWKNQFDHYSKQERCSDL
- PROCEDURE SUMMARY: biochemical
- SETUP CONDITIONS: Selectivity Index = IC50 (BuChE)/IC50 (AChE), rat enzymes
Write no unit; give the number alone.

Consider the worked cases shown below.
MOLECULE	TEST TARGET	SI
O=C1CC(c2ccc(OCCCCN3CCN(Cc4ccccc4)CC3)cc2)Oc2cc(OCCCCN3CCN(Cc4ccccc4)CC3)cc(O)c21 (stereo not shown)	ratAChE (Rattus norvegicus, UniProt P37136)	2.0
O=c1cc(-c2ccc(OCCCCN3CCc4ccccc4C3)cc2)oc2cc(OCCCCN3CCc4ccccc4C3)cc(O)c12 [Compound 10g]	ratAChE (Rattus norvegicus, UniProt P37136)	3.8
O=c1cc(-c2ccc(OCCCCCCN3CCC(CCCc4ccccc4)CC3)cc2)oc2cc(OCCCCCCN3CCC(CCCc4ccccc4)CC3)cc(O)c12 [Compound 10u]	ratAChE (Rattus norvegicus, UniProt P37136)	2.7

Give the reported SI for this molecule. CCN(CCCCOc1ccc(C2CC(=O)c3c(O)cc(OCCCCN(CC)Cc4ccccc4OC)cc3O2)cc1)Cc1ccccc1OC (stereo not shown)
19.7

Give the reported SI for this molecule. CCN(CCCCCCOc1cc(O)c2c(c1)OC(c1ccc(O)cc1)CC2=O)Cc1ccccc1 (stereo not shown)
4.7

Give the reported SI for this molecule. O=c1cc(-c2ccc(OCCCCCN3CCC(c4ccccc4)CC3)cc2)oc2cc(OCCCCCN3CCC(c4ccccc4)CC3)cc(O)c12 [Compound 10n]
4.9

Give the reported SI for this molecule. O=C1CC(c2ccc(O)cc2)Oc2cc(OCCCCN3CCc4ccccc4C3)cc(O)c21 (stereo not shown)
3.0

----------
Measured SI by item
- TEST TARGET: huAChE (Homo sapiens)
- Sequence (P22303 32-617 isoform P22303-2 limits assumed): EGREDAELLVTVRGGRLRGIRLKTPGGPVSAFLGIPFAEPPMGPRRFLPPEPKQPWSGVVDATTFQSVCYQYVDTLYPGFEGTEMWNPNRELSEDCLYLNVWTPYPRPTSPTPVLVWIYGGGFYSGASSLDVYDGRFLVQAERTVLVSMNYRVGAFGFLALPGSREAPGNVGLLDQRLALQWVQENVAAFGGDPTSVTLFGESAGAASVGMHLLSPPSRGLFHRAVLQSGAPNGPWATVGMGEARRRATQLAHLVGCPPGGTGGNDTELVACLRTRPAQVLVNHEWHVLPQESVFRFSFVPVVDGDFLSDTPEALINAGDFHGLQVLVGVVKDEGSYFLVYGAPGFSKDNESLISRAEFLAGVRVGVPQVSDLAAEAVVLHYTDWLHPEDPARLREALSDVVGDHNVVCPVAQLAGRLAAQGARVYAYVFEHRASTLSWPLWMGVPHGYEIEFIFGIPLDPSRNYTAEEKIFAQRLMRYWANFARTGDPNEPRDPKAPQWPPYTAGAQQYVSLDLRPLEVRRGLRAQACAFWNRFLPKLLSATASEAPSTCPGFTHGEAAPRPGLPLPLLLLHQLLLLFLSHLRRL
- PROCEDURE SUMMARY: biochemical
- Type: biochemical
- Design: AChE from 5% rat cortex homogenate or human erythrocytes (Sigma Co.); purchased Sigma Co; host or cells: human erythrocytes
- SETUP CONDITIONS: Selectivity Index = IC50 (BuChE)/IC50 (AChE), human enzymes

COMPOUND	SI
CCN(CCCCCOc1ccc(-c2cc(=O)c3c(O)cc(OCCCCCN(CC)Cc4ccccc4)cc3o2)cc1)Cc1ccccc1 [Compound 10k]	34.6
CCN(CCCCOc1ccc(-c2cc(=O)c3c(O)cc(OCCCCN(CC)Cc4ccccc4)cc3o2)cc1)Cc1ccccc1 [Compound 10h]	23.1

Give the reported SI for this compound. CCN(CCCCCOc1ccc(-c2cc(=O)c3c(O)cc(OCCCCCN(CC)Cc4ccccc4OC)cc3o2)cc1)Cc1ccccc1OC [Compound 10l]
24.4

Give the reported SI for this compound. CCN(CCCCCOc1cc(O)c2c(c1)OC(c1ccc(O)cc1)CC2=O)Cc1ccccc1 (stereo not shown)
6.9
